# tested.target: c-Src SH2;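 also: peptide library displayed on the E. coli surface as eCPX fusions, selected cells deep-sequenced, score is each peptide's frequency after selection divided by its frequency in the input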
# run.description: SH2 binding enrichment of the phosphorylated peptide, bacterial display (enrichment ratio); higher = better substrate or ligand; peptides without Tyr show the background
Below: a set of entries, each annotated with reported SH2 binding enrichment.
Respond with the number and no other words.

Some sequences with recorded SH2 binding enrichment:
GDGRFYMKEAI [PGM1_Y66] | 0.561
YDGGCYEQLFV [MC4R_Y41_S36Y] | 0.598
SRIWVYNHYRC [BRCA2_Y2621_W2626C] | 0.695
QEKKGYFEDRR [GLUL_Y336] | 0.952

IN: Read the entry NFFDTCIKTCL [IQGAP2_Y1445_Y1445C_YF] and write its reported SH2 binding enrichment.
OUT: 1.01

IN: Answer with the recorded SH2 binding enrichment of EDGRLYAVKCS [PKMYT1_Y136_R140C] only.
OUT: 0.473

These measurements were taken from the supplement of paper PMC10065799.
